Biological target: human IL-17RA (form used in the low resolution BIAcore not stated) (human, UniProt Q96F46 33-320, limits assumed)
Experiment: low resolution BIAcore, subcloned hybridoma
assay.readout: pKd
Convention used: pKd is expressed as -log10 of the molar concentration.

Problem: Which pKd value is on record for AMH20/AML20 (antibody, IgG2, V domains shown, human mAb from IgG2 XenoMouse mice; also called AM-20; antibody R) VH: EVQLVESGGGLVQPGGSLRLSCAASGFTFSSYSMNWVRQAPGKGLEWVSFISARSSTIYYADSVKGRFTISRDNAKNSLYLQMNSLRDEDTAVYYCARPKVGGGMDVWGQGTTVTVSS VL: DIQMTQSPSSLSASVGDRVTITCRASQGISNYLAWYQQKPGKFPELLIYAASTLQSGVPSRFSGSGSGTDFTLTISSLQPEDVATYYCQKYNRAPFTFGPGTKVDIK ?
Solution: 7.94
